Ref: patent US20110053865A1

# target-entity: cynomolgus IL-23 (cynomolgus)
# measurement-protocol: cell-based or functional assay
Measured IC50, mouse splenocyte assay (mIL-22) values are reported for all entries that follow.
Please give a number only; it is taken to be in nM.

binder: P23IL-22E11 (VHH) VHH: EVQLVESGGGLVQAGGSLRLSCAASGRTFSWSAVGWFRQAPGKEREFVAAIRWSGGSPYYADSVKDRFTISRDNAKNTVYLQMNSLRPEDTAVYLCGETSLFPTSRGSHYDTWGQGTQVTVSS
reported-measurement: 1.27
--
binder: P23IL3G10 (VHH, p40+ Nanobody; c-myc, His6-tagged) VHH: EVQLVESGGGVVQAGESLRLSCAASGYNVKDYEMGWFRQAPGMEREFAAAISWRGSSTYYADSVKGRFTISRDNAKNTVYLQMSSLKPEDTAVYYCAAGRLYPSSRSRDYDYWGQGTQVTVSS
reported-measurement: 9.45
--
binder: P23IL-23H3 (VHH, p40+ Nanobody) VHH: EVQLVESGGGLVQAGDSLRLSCAASGRSFSNDAMGWFRQAPGKERSFVAAINWSGELTGYAGSVKGRFTISRDGVENMVFLQMNSLVPEDTGVYYCAAVEGRDYYRGAQYYDYWGQGTQVTVSS
reported-measurement: 32.5
--
binder: P23IL3B8 (VHH, p40+ Nanobody; c-myc, His6-tagged) VHH: EVQLVESGGGLVQPGGSLRLSCAASGFTFSSSVMFWLRQAPGKGLEWLSTIKPTGSTIYPGSGKGRFTISRDNAKNTLYLQINNLKPEDTALYYCARDIGGTVRGQGTQVTVSS
reported-measurement: 1.79
--
binder: P23IL-23E3 (VHH, p40+ Nanobody) VHH: EVQLVESGGELVQAGGSLRLSCAASGSIVSISAMAWYRQAPGKQRERVATITRGGTPDYADSAKDRFTISRDNAKNTVSLQMNNLKPEDTAVYYCKAALRTPTHDYNYYDYWGQGTQVTVSS
reported-measurement: 5.46

Kindly consider the entry below.
INPUT: Recorded IC50, mouse splenocyte assay (mIL-22) for P23IL-22D7 (VHH, p40+ Nanobody) VHH: EVQLVESGGGLVQAGGSLRLSCASSGRTFSIYARGWFRQAPGKEREFVAAIRSGLTTYSDSVKGRFTISRDIAKNTVFLQMNSLKSEDTAVYYCAAAVNYFTDFTDYSKRDSYDYWGQGTQVTVSS , please?
OUTPUT: 0.705
